target: T1, cynomolgus monkey BCMA (cynomolgus monkey, UniProt A0A2K5UD97 1-53); assay: SPR, IgG on chip, cyBCMA analyte, 37C
T1 construct: Soluble analyte in SPR; construct not described; also called cyBCMA; Cyno BCMA
T1 sequence (A0A2K5UD97 entry or part of it): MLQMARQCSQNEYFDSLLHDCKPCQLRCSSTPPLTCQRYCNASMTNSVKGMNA

Binder: L3.PY/L1.FF/H2.QL (antibody, V domains shown, IgG) VH: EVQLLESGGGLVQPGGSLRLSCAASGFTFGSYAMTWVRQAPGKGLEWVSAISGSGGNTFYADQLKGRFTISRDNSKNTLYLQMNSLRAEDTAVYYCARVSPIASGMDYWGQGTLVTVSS VL: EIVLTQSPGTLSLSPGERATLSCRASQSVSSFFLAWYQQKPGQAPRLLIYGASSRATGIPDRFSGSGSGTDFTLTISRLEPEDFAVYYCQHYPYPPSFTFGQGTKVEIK
koff: 0.00449 s⁻¹

Binder: L3.PY/L3.KY/H2.HA (antibody, V domains shown, IgG) VH: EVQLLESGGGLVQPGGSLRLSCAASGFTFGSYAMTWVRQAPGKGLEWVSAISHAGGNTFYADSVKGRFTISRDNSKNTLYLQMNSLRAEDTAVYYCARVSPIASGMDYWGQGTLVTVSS VL: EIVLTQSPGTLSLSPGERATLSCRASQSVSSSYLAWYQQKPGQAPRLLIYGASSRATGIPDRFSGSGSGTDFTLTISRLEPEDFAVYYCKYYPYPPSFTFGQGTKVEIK
koff: 0.00318 s⁻¹
